Entries and their measured EC50 follow.
Target: T1, mouse GPC3 on stably transfected SK-HEP-1 cells (mouse, UniProt Q8CFZ4 25-553)
T1 construct: whole, on cells; also called SK-HEP-1::mouse GPC3; murine GPC3
T1 sequence (Q8CFZ4 25-553 limits assumed): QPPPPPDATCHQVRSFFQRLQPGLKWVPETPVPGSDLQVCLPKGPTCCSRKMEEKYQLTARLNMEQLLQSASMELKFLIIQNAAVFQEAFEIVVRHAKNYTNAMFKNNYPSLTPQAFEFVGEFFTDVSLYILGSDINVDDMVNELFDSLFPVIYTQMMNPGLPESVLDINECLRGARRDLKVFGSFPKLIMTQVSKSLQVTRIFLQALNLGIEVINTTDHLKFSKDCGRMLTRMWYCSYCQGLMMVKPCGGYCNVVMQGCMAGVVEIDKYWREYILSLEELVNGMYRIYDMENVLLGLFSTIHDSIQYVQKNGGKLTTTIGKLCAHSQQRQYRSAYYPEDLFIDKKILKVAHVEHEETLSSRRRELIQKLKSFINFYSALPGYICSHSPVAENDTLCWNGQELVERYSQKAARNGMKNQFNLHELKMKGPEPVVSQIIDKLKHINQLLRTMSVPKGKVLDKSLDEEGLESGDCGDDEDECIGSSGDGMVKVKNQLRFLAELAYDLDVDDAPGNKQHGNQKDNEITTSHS
Experiment: MSD-based (ECL) cell binding assay on transfected SK-HEP-1 cells
The response must be a number in nM with no trailing unit.

[[record]]
binder = "lipocalin mutein of SEQ ID NO: 9 (designed binder, hNGAL (Lcn2) mutein; also called optimized GPC3 specific lipocalin mutein) QDSTSDLIPAPPLSKVPLQQNFQDNQFQGKWYVVGRAGNVGLREDKDPPKMWATIYELKEDKSYDVTNVRFARKKCTYSIGTFVPGSQPGEFTLGQIKSEPGGTANLVRVVSTNYNQHAMVFFKEVYQNREIFFIILYGRTKELTSELKENFIRFSKSLGLPENHIVFPVPIDQCIDGSAWSHPQFEK"
reported = 4.1


In the following, a different binder is considered.
Form field EC50, entry lipocalin mutein of SEQ ID NO: 13 (designed binder, hNGAL (Lcn2) mutein; also called optimized GPC3 specific lipocalin mutein) QDSTSDLIPAPPLSKVPLQQNFQDNQFQGKWYVVGRAGNLGLREDKDPPKMWATIYELKEDKSYDVTNVRFARKKCMYSIGTFVPGSQPGEFTLGQIKSEPGSTANLVRVVSTNYNQHAMVFFKEVYQNREIFFITLYGRTKELTSELKENFIRFSKSLGLPENHIVFPVPIDQCIDGSAWSHPQFEK : 2.9

These entries and their values trace back to patent US20180141988A1.
